target: D(1A) dopamine receptor (Homo sapiens) (UniProt P21728); assay: Antagonist of Human D 1 Dopamine Receptor: qHTS; details: HEK293 TREx D1 cells, calcium flux, dopamine EC80; at 10 µM; stronger effect = lower value; also: % is scaled to controls: 0 for no effect and ±100 for the full control effect
Sequence (P21728 whole entry, looked up): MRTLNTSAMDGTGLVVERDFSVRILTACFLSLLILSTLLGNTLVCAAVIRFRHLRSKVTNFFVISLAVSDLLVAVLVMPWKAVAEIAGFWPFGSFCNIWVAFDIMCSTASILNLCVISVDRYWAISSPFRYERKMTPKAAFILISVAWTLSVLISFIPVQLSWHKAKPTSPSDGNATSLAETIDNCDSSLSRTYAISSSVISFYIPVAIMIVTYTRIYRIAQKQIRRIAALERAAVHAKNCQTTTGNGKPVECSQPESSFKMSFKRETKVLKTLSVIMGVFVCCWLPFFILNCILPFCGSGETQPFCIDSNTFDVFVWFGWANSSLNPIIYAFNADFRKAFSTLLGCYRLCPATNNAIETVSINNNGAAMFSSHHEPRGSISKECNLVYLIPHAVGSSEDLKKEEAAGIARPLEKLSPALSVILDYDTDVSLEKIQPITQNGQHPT
In all, about 360,000 compounds went through this assay and about 11,000 (3.1%) were called active. What follows is part of a selection rich in actives, with near analogues and random picks from the rest.
measurement label: activity change, negative = inhibition

molecule smiles: Cc1ccc2c(c1)c1c(c(=O)n(-c3ccccc3)c(=O)n1CC(=O)c1ccc(Cl)cc1)n2C
readout value: -16% (inactive)
--
molecule smiles: O=C(C1CCC1)N1CCN(c2ccccc2)CC1
readout value: 6.47% (inactive)
--
molecule smiles: Cc1ccc(S(=O)(=O)NCCC(=O)NCc2ccc(Cl)cc2)cc1C
readout value: -35.7% (active)
--
molecule smiles: CC(=O)N1CCCc2cc(S(=O)(=O)N3CCC(C(=O)NC4CCCCC4)CC3)ccc21
readout value: 0.0767% (inactive)
--
molecule smiles: COc1ccc(CNS(=O)(=O)c2cc(-c3cc(C)no3)ccc2C(C)C)cc1
readout value: -31% (active)
--
molecule smiles: COc1ccc(NC(=O)c2cnc(Nc3ccc(C)c(Cl)c3)c3ccccc23)cc1OC
readout value: 0.261% (inactive)
--
molecule smiles: CSc1ccc(CCNC(=O)c2cnn(-c3ccccc3)c2-n2cccc2)cc1
readout value: 1.42% (inactive)
--
molecule smiles: CC(C)CCNC(=O)CCNS(=O)(=O)c1ccc(Cl)cc1
readout value: -17.7% (inactive)
--
molecule smiles: CCOc1ccccc1CNS(=O)(=O)c1cc(-c2cc(C)no2)ccc1C
readout value: 50.5% (inactive)
--
molecule smiles: COc1ccc(CNc2nc(-c3ccc(Cl)cc3)cc(C(F)(F)F)n2)cc1
readout value: -13.9% (inactive)
